Entries and their measured pIC50 follow.
target: PPARα (Homo sapiens, UniProt Q07869); construct: PPARα (aa 167 to 469); test: PPARα radioligand binding assay (scintillation proximity); details: GST-PPARα-LBD fusion protein on SPA beads
Sequence (Q07869 167-468 limits assumed): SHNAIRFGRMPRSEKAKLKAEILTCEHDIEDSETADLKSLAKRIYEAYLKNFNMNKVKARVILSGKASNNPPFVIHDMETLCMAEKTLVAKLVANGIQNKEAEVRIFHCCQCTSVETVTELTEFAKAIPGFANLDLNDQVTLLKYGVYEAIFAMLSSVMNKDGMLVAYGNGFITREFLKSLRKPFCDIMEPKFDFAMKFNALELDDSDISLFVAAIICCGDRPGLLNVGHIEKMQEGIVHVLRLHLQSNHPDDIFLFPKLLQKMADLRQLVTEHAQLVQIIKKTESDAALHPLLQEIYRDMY
Quick note: pIC50 means taking -log10 of the concentration in moles per liter.

molecular.string	pIC50
Cn1nc(-c2ccc(C(F)(F)F)cc2)c(Br)c1COc1ccc2ccn(CC(=O)O)c2c1	5.59

Proceeding to the next compound to report its pIC50.
Ask: I would be grateful if you could share the reported pIC50 for Cn1nc(-c2ccc(OC(F)(F)F)cc2)cc1CCCOc1ccc2ccn(CC(=O)O)c2c1 .
Result: 7.89
